# Measurement Description: thioesterase activity (production of TNB at 412 nm)
# Assay type: biochemical
# Test Parameters: crude cell extract; 200 μM substrate; expressed from pCA24N
The entries below come with measured Specific activities of selected thioesterases on Butyryl-CoA values attached.
Quantity Measured: Specific activities of selected thioesterases on Butyryl-CoA (μmol/mg protein/min)

YciA: E. coli acyl-CoA thioesterase (protein, UniProt P0A8Z0 1-132, looked up) Acyl-CoA thioester hydrolase …: MSTTHNVPQGDLVLRTLAMPADTNANGDIFGGWLMSQMDIGGAILAKEIAHGRVVTVRVEGMTFLRPVAVGDVVCCYARCVQKGTTSVSINIEVWVKKVASEPIGQRYKATEALFKYVAVDPEGKPRALPVE : 2.9
YbgC: E. coli Acyl-CoA thioesterase (protein, UniProt P0A8Z3 1-134, looked up) Acyl-CoA thioester hydrolase …: MNTTLFRWPVRVYYEDTDAGGVVYHASYVAFYERARTEMLRHHHFSQQALMAERVAFVVRKMTVEYYAPARLDDMLEIQTEITSMRGTSLVFTQRIVNAENTLLNEAEVLVVCVDPLKMKPRALPKSIVAEFKQ : 0.045
TesB: E. coli thioesterase II (protein, UniProt P0AGG2 2-286, looked up) Acyl-CoA thioesterase 2: SQALKNLLTLLNLEKIEEGLFRGQSEDLGLRQVFGGQVVGQALYAAKETVPEERLVHSFHSYFLRPGDSKKPIIYDVETLRDGNSFSARRVAAIQNGKPIFYMTASFQAPEAGFEHQKTMPSAPAPDGLPSETQIAQSLAHLLPPVLKDKFICDRPLEVRPVEFHNPLKGHVAEPHRQVWIRANGSVPDDLRVHQYLLGYASDLNFLPVALQPHGIGFLEPGIQIATIDHSMWFHRPFNLNEWLLYSVESTSASSARGFVRGEFYTQDGVLVASTVQEGVMRNHN : 0.101

Cited source for all entries: patent US9994881B2
